# Test system: 786-0 renal
# ASSAY_PROCEDURE: NCI tumour cell line growth inhibition, 48 h
METRIC: log10(TGI) (log10 of the value in µM)
Quick note: numbers are log10 of TGI, with µM as the unit.

Recorded log10(TGI), per entry:
COc1ccc(CCN2C(=O)C=CC2=O)cc1OC = 0.91
C=CCc1cc(-c2cc(CC=C)c(O)c(CN(CCCl)CCCl)c2)cc(CN(CCCl)CCCl)c1O = 1.58

# return recorded log10(TGI) for entry C/C=C/c1c(O)c(=O)c2c(OC)cc(OC)c3c4c(OC)cc(OC)c5c(=O)c(O)c(/C=C/C)c(c1c23)c54
1.58

Tell me log10(TGI) reported for C/C=C(\C)C(=O)N[C@H]1CC[C@]2(C)C3CC[C@@]4(C)C(CC[C@@H]4C(C)N(C)C)C3CCC2[C@H]1OC(C)=O (some centres undefined)
0.47

Return the recorded log10(TGI) value; entry: Cn1cncc1[C@@](N)(c1ccc(Cl)cc1)c1ccc2c(c1)c(-c1cccc(Cl)c1)cc(=O)n2C
1.15

* * *

Attribute: TGI
# Tested on: RPMI-8226 leukemia
# ASSAY_PROCEDURE: NCI tumour cell line growth inhibition, 48 h

Guide cases for TGI, answers given:
CCc1n[nH]c(=S)n1/N=C\c1ccc(-c2ccccc2Cl)o1 = 51.3 µM
Nc1nc(N)c(N=O)c(Nc2ccc(O)cc2)n1 = > 68.2 µM
COC(=O)Nc1nc2ccc(Oc3ccc(NC(=O)Nc4cccc(C(=O)O)c4)cc3)cc2[nH]1 = > 25 µM

State, in one line, measured TGI of Cc1ccc(NC(=O)CCC(CC(=O)C(C)(C)C)=NNC(=O)C(=O)NN)cc1C
> 100 µM

Provide TGI value for the following compound: COc1ccccc1OCC(=O)Nc1sc2c(c1C(N)=O)CCC2
> 100 µM

Using the record for CCOC(C)C(/C=N/NC(N)=S)=NNC(N)=S (stereo unspecified) , state its measured TGI.
> 100 µM

* * *

# Tested on: HS 578T breast
# ASSAY_PROCEDURE: NCI tumour cell line growth inhibition, 48 h
Below is a list of entries, each paired with its recorded TGI value.
Enter your answer as a number in µM; do not include the unit.

Cn1cncc1[C@@](N)(c1ccc(Cl)cc1)c1ccc2c(c1)c(-c1cccc(Cl)c1)cc(=O)n2C = 15.5
Cc1cc(N2CCCCC2)nc(N(CCCNc2ccnc3cc(Cl)ccc23)Cc2ccco2)n1 = 11.4
C=CC(Cl)(CBr)CCC(Br)=C(C)C (stereo not given) = 76.2

# next compound below
Provide HS 578T breast TGI reading for CC(C)(C)NCc1cc(Nc2ccnc3cc(Cl)ccc23)cc(-c2ccc(Cl)cc2)c1O .
6.37

* * *

Reported TGI values are given for each entry in this list.
# Tested on: PC-3 prostate
# ASSAY_PROCEDURE: NCI tumour cell line growth inhibition, 48 h

Please review the following examples before continuing.
CCOc1ccc(N=NC2C(=O)N(C(=O)CC(=O)Nc3ccccc3OC)N=C2C)cc1 (centres undefined) = > 100 µM
CCC(C)(C)C(=O)O[C@H]1C[C@@H](C)C=C2C=C[C@H](C)[C@H](CC[C@@H]3C[C@@H](O)CC(=O)O3)[C@H]21 = 14.5 µM
CC(=N/NC(=S)N1CCCCC1)/C(=N\NC(=S)N1CCCCC1)c1ccccc1 = 3.55 µM
Cc1ccc([N+](=O)[O-])c2c(NCCNC(=O)Cn3ccnc3[N+](=O)[O-])ccnc12 = > 100 µM
COCc1nc2c(OC)cc(-c3nc4nc(N5CCN(C)CC5)ccc4[nH]3)c(OC)c2[nH]1 = > 100 µM

// fetch TGI; item: C[C@@H]1CN(C(=O)c2ccc(NC(=O)c3cc(O[C@H](C)c4c(Cl)ccc(F)c4Cl)c(N)nn3)cc2)C[C@H](C)N1 ; system: PC-3 prostate
16.7 µM

Enter TGI (test system PC-3 prostate) for CC(C)/C(Cl)=N\OC(=O)Nc1cccc(F)c1
30.2 µM

Fill in: TGI on PC-3 prostate, entry Cc1ccc(S(=O)(=O)N2CC3OC(C)(C)OC3C2CO)cc1 (centres undefined)
> 100 µM

Fill: TGI (PC-3 prostate) for this compound O=c1cc(-c2cccc(C(F)(F)F)c2)[nH]c2cc3c(cc12)OCO3
> 100 µM
